Parameter: recombinant UMI read abundance (log10). Scope: all listed entries.
Assay: recombinant UMI read abundance after kanamycin selection (control-corrected) (log10(CPM+1)); higher = more efficient recombination; extreme values may be limits of the assay; sequences stand for … in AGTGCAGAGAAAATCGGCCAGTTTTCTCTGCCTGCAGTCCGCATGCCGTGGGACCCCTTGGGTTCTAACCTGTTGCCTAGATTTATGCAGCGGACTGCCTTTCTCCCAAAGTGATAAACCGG…AGGTTGGTTTCACT; site = the 11-nt donor;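 further: IS621 bridge recombinase in Escherichia coli cells against a fixed T5 target plasmid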
Number only, please.

Below: 3 sequences and their reported recombinant UMI read abundance (log10).
1) CCAAAACCATGGACCGGTTTTCCCGGTAATCCGTATTTGAG (site CCAAAACCTCT)
0
2) CCGAATTCATGGACCGGTTTTCCCGGTAATCCGTATTTGTT (site CCGAATTCTAA)
0
3) CAATGCTCATGGACCGGTTTTCCCGGTAATCCGTATTTGAA (site CTATGCTCTTT)
0.217

Name the recorded recombinant UMI read abundance (log10) for GCGAACCCATGGACCGGTTTTCCCGGTAATCCGTATTTGGG (site GCGAATCCTCC) . 0.0113

====

Test: recombinant UMI read abundance after kanamycin selection (control-corrected) (log10(CPM+1)); higher = more efficient recombination; extreme values may be limits of the assay; sequences stand for … in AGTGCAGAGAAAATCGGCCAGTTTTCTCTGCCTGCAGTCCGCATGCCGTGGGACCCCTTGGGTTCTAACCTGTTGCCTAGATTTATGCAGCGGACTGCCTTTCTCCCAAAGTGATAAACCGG…AGGTTGGTTTCACT; site = the 11-nt donor
Experimental Endpoint: recombinant UMI read abundance (log10)
Enter the number alone.

Example cases with answers are listed next.
1) AGAGGACCATGGACCGGTTTTCCCGGTAATCCGTATTTGGG (site CGAGGACCTCC)
0.0261
2) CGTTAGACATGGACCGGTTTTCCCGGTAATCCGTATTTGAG (site CGTTAAACTCT)
0.893

What value of recombinant UMI read abundance (log10) has been recorded for this entry: CTGGAGTCATGGACCGGTTTTCCCGGTAATCCGTATTTGCC (site CTGGAGTCTGG) 2.84

Record request: recombinant UMI read abundance (log10) value, item CAAGTCACATGGACCGGTTTTCCCGGTAATCCGTATTTGGA (site CAAGTCACTAC) 0.358

GET /values?readout=recombinant UMI read abundance (log10)&item= TAATGAGCATGGACCGGTTTTCCCGGTAATCCGTATTTGGG (site TAATGCGCTCC) 0.00982

Field request: recombinant UMI read abundance (log10) | item: CTTCTTTCATGGACCGGTTTTCCCGGTAATCCGTATTTGAC (site CTTCTTTCTGT) 0

Can you share its recombinant UMI read abundance (log10)? I mean this sequence: TGCCATGCATGGACCGGTTTTCCCGGTAATCCGTATTTGCC (site TGCCATGCTGG) 0.0153

====

Experiment: recombinant UMI read abundance after kanamycin selection (control-corrected) (log10(CPM+1)); higher = more efficient recombination; extreme values may be limits of the assay; sequences stand for … in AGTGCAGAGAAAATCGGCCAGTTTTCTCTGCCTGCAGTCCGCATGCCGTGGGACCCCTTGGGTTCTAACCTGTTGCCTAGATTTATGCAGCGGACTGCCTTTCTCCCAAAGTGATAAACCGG…AGGTTGGTTTCACT; site = the 11-nt donor
Experimental Endpoint: recombinant UMI read abundance (log10)

Would you please look over these solved cases?
1) CAAGGCCCATGGACCGGTTTTCCCGGTAATCCGTATTTGTT (site CACGGCCCTAA)
0.0285
2) ACACTATCATGGACCGGTTTTCCCGGTAATCCGTATTTGCA (site ACATTATCTTG)
2.21
3) GTATGCTCATGGACCGGTTTTCCCGGTAATCCGTATTTGTA (site GTATGCACTTA)
0.29
4) GAAGATTCATGGACCGGTTTTCCCGGTAATCCGTATTTGTC (site GAAGATTCTTA)
0.965

State the recorded recombinant UMI read abundance (log10) for this entry: ACTAGTACATGGACCGGTTTTCCCGGTAATCCGTATTTGAG (site ACTAGGACTCT) 0.0174
